// data source = paper PMC6937325

# TARGET DESC: T1, human inducible phospho-fructokinase bisphosphatase isoform 3, PFKFB3 (human, UniProt Q16875 1-520, RED-NHS label)
# T1 construct: human PFKFB3 (inducible bifunctional enzyme), GenBank AF056320.1; Plasmid from Prof; Yong-Hwan Lee; also called 6-Phosphofructo-2-kinase/fructose-2,6-biphosphatase 3; human inducible bifunctional enzyme; not shown: His tag, N-terminal, cleaved
# T1 sequence (Q16875 whole entry, canonical isoform): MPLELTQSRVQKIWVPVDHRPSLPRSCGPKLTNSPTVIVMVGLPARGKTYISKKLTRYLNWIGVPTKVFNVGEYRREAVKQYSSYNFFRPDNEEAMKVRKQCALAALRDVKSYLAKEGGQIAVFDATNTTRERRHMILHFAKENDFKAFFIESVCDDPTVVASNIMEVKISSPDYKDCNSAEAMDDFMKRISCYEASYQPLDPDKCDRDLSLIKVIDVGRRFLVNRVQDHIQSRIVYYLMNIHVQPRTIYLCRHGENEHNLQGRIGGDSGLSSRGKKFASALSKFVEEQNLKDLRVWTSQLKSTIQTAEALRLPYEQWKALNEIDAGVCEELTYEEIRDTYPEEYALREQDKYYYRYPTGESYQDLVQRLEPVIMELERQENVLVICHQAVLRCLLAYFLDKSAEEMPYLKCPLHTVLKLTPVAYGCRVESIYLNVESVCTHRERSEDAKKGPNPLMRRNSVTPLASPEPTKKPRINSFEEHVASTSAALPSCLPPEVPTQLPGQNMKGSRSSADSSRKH
# TEST SUMMARY: MST; Nanotemper microscale thermophoresis; compound in MST buffer mixed 1:1 with 100 nM RED-NHS labeled recombinant PFKFB3, incubated 20 min at room temperature
# EXPERIMENTAL CONTEXT: both partners purified
Square brackets hold non-standard residues; d marks the D form. Ends that are not written are not given here.
MEASURED METRIC: Kd (nM)
Answers are plain numbers, in nM.

INPUT: So what's the measured Kd for this one? [dW]-Gly-[dY] [peptide 6 (wGy)]
OUTPUT: 2790
